Below, each entry is listed alongside its reported selectivity ratio.
Procedure Summary: Selectivity index, ratio of IC50 for HEK293 cells to IC50 for human MCF7 cells
Experimental Context: HEK293 cells versus MCF7 cells

- Smiles String: "COc1ccc(-c2ccccn2)cc1OC"
  selectivity ratio: "< 1"
- Smiles String: "COc1ccc(-c2ccccn2)c(OC)c1"
  selectivity ratio: "< 1"
- Smiles String: "c1ccc(-c2cccnc2)cc1"
  selectivity ratio: "< 1"
- Smiles String: "COc1ccc(-c2ncccn2)c(OC)c1"
  selectivity ratio: "< 1"
- Smiles String: "c1ccc(-c2cncnc2)cc1"
  selectivity ratio: "> 50"

====

Procedure Summary: Selectivity index, ratio of IC50 for HEK293 cells to IC50 for human MCF7 cells
Experimental Context: HEK293 cells versus MCF7 cells
Outcome Measure: selectivity ratio

- Smiles String: "COc1ccc(-c2cccnc2)c(OC)c1"
  Outcome Measure: "selectivity ratio"
  Assay Value: "< 1"
- Smiles String: "COc1ccc(-c2ncccn2)cc1OC"
  Outcome Measure: "selectivity ratio"
  Assay Value: "> 9"
- Smiles String: "COc1ccc(-c2cccnc2)cc1OC"
  Outcome Measure: "selectivity ratio"
  Assay Value: "> 2"

From: ChEMBL document CHEMBL4368926
